Tested on: U2OS
ASSAY OVERVIEW: Incucyte cell viability with U2OS; also: unitless GR value; below 1 slowed growth and below 0 cell loss
Format: toxicity, cell-based
CONDITION: human, 24 h, 10 µM, compound concentration 10 uM, replicate number 1
METRIC: Growth Rate
No unit in the answer, please; the number alone is enough.

Reference set, count: 3
(Q) Answer with the recorded Growth Rate of `C/C(=C\C(=O)Nc1ccccc1C(=O)[O-])c1ccc2ccccc2c1.[Na+]` only.
(A) 0.94

(Q) Answer with the recorded Growth Rate of `CN(C)C/C=C/C(=O)Nc1ccc(C(=O)Nc2cccc(Nc3ncc(Cl)c(-c4c[nH]c5ccccc45)n3)c2)cc1` only.
(A) 0.16

(Q) Answer with the recorded Growth Rate of `CNc1nc(-c2cc(C(=O)N3CCN(Cc4ccc(Cl)cc4)CC3)c(Cl)cn2)cs1` only.
(A) 0.37

More entries:
(Q) Answer with the recorded Growth Rate of Cc1ccc(NS(=O)(=O)c2ccc3c(c2)C2C=CCC2C(c2ccc(C(=O)O)cc2)N3)cc1C (stereo not drawn) only.
(A) 0.93

(Q) Answer with the recorded Growth Rate of `CC(C)n1nc(-c2cnc(N)c(OC(F)(F)F)c2)cc1[C@H]1[C@@H]2CN(C3COC3)C[C@@H]21` only.
(A) 0.84

(Q) Answer with the recorded Growth Rate of `CCn1c(CNC(=O)c2nc(Cl)cnc2N)[n+](CC)c2ccc(C(=O)N(C)CCN(C)C)cc21.[Cl-]` only.
(A) 0.84

(Q) Answer with the recorded Growth Rate of `CCc1cncnc1N1CCN(Cc2nc3cc(C(F)(F)F)ccc3[nH]2)CC1` only.
(A) 0.7

(Q) Answer with the recorded Growth Rate of `CS(=O)(=O)CCNCc1ccc(-c2ccc3ncnc(Nc4ccc(OCc5cccc(F)c5)c(Cl)c4)c3c2)o1` only.
(A) 0.9

====

Tested on: Fibroblast
ASSAY OVERVIEW: Incucyte cell viability with human fibroblast; also: unitless GR value; below 1 slowed growth and below 0 cell loss
Type: toxicity, cell-based
CONDITION: 12 h, 10 µM, compound concentration 10 uM, replicate number 1
METRIC: Growth Rate
No unit in the answer, please; the number alone is enough.

Reference set, count: 5
(Q) Answer with the recorded Growth Rate of `C[C@@H]1COCCN1c1cc(=O)n2c(n1)N(Cc1cncc(Cl)c1)[C@H](C(F)(F)F)CC2` only.
(A) 0.72

(Q) Answer with the recorded Growth Rate of `CCN(CC)CCO[C@H]1CC[C@@]2(C)C(=CC[C@@H]3[C@@H]2CC[C@]2(C)C(=O)CC[C@@H]32)C1.Cl` only.
(A) -0.34

(Q) Answer with the recorded Growth Rate of `CC(C)(C)c1cnc(CSc2cnc(NC(=O)C3CCNCC3)s2)o1` only.
(A) 0.11

(Q) Answer with the recorded Growth Rate of `CC(=O)Nc1c(F)cc(C(=O)N[C@H]2CC[C@H](O)CC2)cc1O[C@@H](C)c1ccccc1` only.
(A) 0.75

(Q) Answer with the recorded Growth Rate of `Cc1nc(Nc2cnn(C3CCNCC3)c2)nc2c1N(C)C(=O)c1cc3ccccc3cc1N2C` only.
(A) -0.05

More entries:
(Q) Answer with the recorded Growth Rate of `CN(C)CC#Cc1ccc2[nH]c3c(c2c1)-c1nc(N)ncc1CCC3` only.
(A) 0.45

(Q) Answer with the recorded Growth Rate of `C=C(F)C(=O)N1CCN(c2nc(OC[C@@H]3CCCN3C)nc3c2CCN(c2cccc4cccc(Cl)c24)C3)C[C@@H]1CC#N` only.
(A) -0.27

(Q) Answer with the recorded Growth Rate of `Cc1c(-c2cc(-c3ccccc3Cl)no2)cnn1C1CCNCC1.Cl` only.
(A) -1

====

System: HEK-293T
ASSAY OVERVIEW: Incucyte cell viability with HEK293T; also: unitless GR value; below 1 slowed growth and below 0 cell loss
Format: toxicity, cell-based
CONDITION: human, 6 h, 10 µM, compound concentration 10 uM, replicate number 2
Sorting guide: entries reporting Growth Rate beneath 0.5 go in the label 1 pile, the rest go in the label 0 pile.

(Q) Identify whether the molecule CC/C(=C(\c1ccccc1)c1ccc(OCCN(C)C)cc1)c1ccccc1.O=C(O)CC(O)(CC(=O)O)C(=O)O [TAMOXIFEN CITRATE] records Growth Rate below 0.5.
(A) label 1

(Q) Identify whether the molecule `CN1CCN(C(=O)c2ccc3cc2OCCOCCNc2ccn4ncc-3c4n2)CC1` records Growth Rate below 0.5.
(A) label 0

(Q) Identify whether the molecule `CCO[C@H](COc1ccc(C(F)(F)F)cc1)CSc1ccc(OCC(=O)[O-])c(C)c1.[Na+]` records Growth Rate below 0.5.
(A) label 0

(Q) Identify whether the molecule `O=C(Nc1snnc1C(=O)Nc1ccc(N2CCCC2)cc1)c1cncc(C(F)(F)F)c1` records Growth Rate below 0.5.
(A) label 0

(Q) Identify whether the molecule `Cc1cccc(CC(=O)N2CCc3c2ccc(-c2cn(C)c4ncnc(N)c24)c3F)n1` records Growth Rate below 0.5.
(A) label 1

(Q) Identify whether the molecule `CCN(C(=O)c1cc(F)ccc1Oc1cncnc1N1CC2(CCN(C[C@H]3CC[C@H](NS(=O)(=O)CC)CC3)CC2)C1)C(C)C` records Growth Rate below 0.5.
(A) label 1

(Q) Identify whether the molecule COCCNC1CCC(Nc2cc(-c3csc(NCC4(C#N)CCOCC4)n3)c(Cl)cn2)CC1 (stereo not drawn) records Growth Rate below 0.5.
(A) label 1

====

System: U2OS
ASSAY OVERVIEW: Incucyte cell viability with U2OS; also: unitless GR value; below 1 slowed growth and below 0 cell loss
Assay type: toxicity, cell-based
CONDITION: human, 12 h, 10 µM, compound concentration 10 uM, replicate number 1
# Growth Rate per entry
No unit in the answer, please; the number alone is enough.

(Q) Answer with the recorded Growth Rate of `N#Cc1ccnc(Nc2cc(C3CCN(C4COC4)CC3)cc(N3CCC(F)(F)C3)n2)c1` only.
(A) 0.44

(Q) Answer with the recorded Growth Rate of `CC[C@]1(C)C[C@@H](OC(=O)CSc2nnc(N)[nH]2)[C@@]2(C)[C@H](C)CC[C@@]3(CCC(=O)[C@H]32)[C@@H](C)[C@@H]1O` only.
(A) 0.98

(Q) Answer with the recorded Growth Rate of CCN1C(=O)C(c2cccc(C(=O)O)c2)C(=O)N(c2ccccc2)c2cc(C(F)(F)F)ccc21 (stereo not given) only.
(A) 0.8

(Q) Answer with the recorded Growth Rate of `C[C@@H]1Cc2c([nH]c3ccccc23)[C@@H](c2c(F)cc(/C=C/C(=O)O)cc2F)N1CC(C)(C)F` only.
(A) 0.94

(Q) Answer with the recorded Growth Rate of `Cc1c[nH]c(-c2cnc(NCCNc3ccc(C#N)cn3)nc2-c2ccc(Cl)cc2Cl)n1` only.
(A) 0.48

(Q) Answer with the recorded Growth Rate of `CC(=O)O[C@H]1C(=O)[C@@]2(C)[C@H]([C@H](OC(=O)c3ccccc3)[C@]3(O)C[C@H](OC(=O)[C@H](O)[C@@H](NC(=O)c4ccccc4)c4ccccc4)C(C)=C1C3(C)C)[C@]1(OC(C)=O)CO[C@@H]1C[C@@H]2O` only.
(A) -0.21

More entries:
(Q) Answer with the recorded Growth Rate of COc1cc(N)c(Cl)cc1C(=O)NC1CN2CCC1CC2.Cl (stereo not given) only.
(A) 0.95

(Q) Answer with the recorded Growth Rate of `CCn1c(CNC(=O)c2ncc(C)nc2N)[n+](CC)c2ccc(C(=O)N(C)CCN(C)C)cc21.Cl.Cl.[Cl-]` only.
(A) 0.62

(Q) Answer with the recorded Growth Rate of `CC(C)Oc1ccc(Cc2ccc(NC3=NCCN3)cc2)cc1` only.
(A) 0.64

====

System: HEK-293T
ASSAY OVERVIEW: Incucyte cell viability with HEK293T; also: unitless GR value; below 1 slowed growth and below 0 cell loss
Type: toxicity, cell-based
CONDITION: human, 24 h, 10 µM, compound concentration 10 uM, replicate number 1
Sorting guide: entries reporting Growth Rate beneath 0.8 go in the 1 (yes) pile, the rest go in the 0 (no) pile.

(Q) Identify whether the compound `O=C(N[C@@H]1C2CCN(CC2)[C@H]1Cc1cccnc1)c1cc2ccccc2o1` records Growth Rate below 0.8.
(A) 0 (no)

(Q) Identify whether the compound COc1cc(N)c(Cl)cc1C(=O)NC1CN2CCC1CC2.Cl (stereo not drawn) records Growth Rate below 0.8.
(A) 1 (yes)

(Q) Identify whether the compound `Cc1c(-c2c(F)cc(C(N)=O)c3[nH]c4c(c23)CC[C@H](C(C)(C)O)C4)cccc1-n1c(=O)c2cccc(F)c2n(C)c1=O` records Growth Rate below 0.8.
(A) 1 (yes)

More entries:
(Q) Identify whether the compound `Fc1ccc(-c2c3cccc(C(F)(F)F)c3nn2Cc2ccc(F)cc2Cl)cc1` records Growth Rate below 0.8.
(A) 0 (no)

(Q) Identify whether the compound `Cc1nc2c([nH]1)c(=O)n(C)c(=O)n2Cc1ccco1` records Growth Rate below 0.8.
(A) 0 (no)

(Q) Identify whether the compound `Cc1[nH]nc(C(F)(F)F)c1Cc1sc2c(c1C(=O)N1C[C@](C)(O)CO1)c(=O)n(C)c(=O)n2C(C)C` records Growth Rate below 0.8.
(A) 1 (yes)

====

System: HEK-293T
ASSAY OVERVIEW: Incucyte cell viability with HEK293T; also: unitless GR value; below 1 slowed growth and below 0 cell loss
Assay type: toxicity, cell-based
CONDITION: human, 18 h, 10 µM, compound concentration 10 uM, replicate number 2
METRIC: Growth Rate
No unit in the answer, please; the number alone is enough.

(Q) Answer with the recorded Growth Rate of `COCCNc1cc(NC(=O)N2CCCc3cc(CN4CCN(C)CC4=O)c(C=O)nc32)ncc1C#N` only.
(A) 0.98

(Q) Answer with the recorded Growth Rate of `CCN(CC)CCO[C@H]1CC[C@@]2(C)C(=CC[C@@H]3[C@@H]2CC[C@]2(C)C(=O)CC[C@@H]32)C1.Cl` only.
(A) 0.42

More entries:
(Q) Answer with the recorded Growth Rate of `Cc1ccc(NC(=O)c2ccc(CN3CC[C@H](N(C)C)C3)c(C(F)(F)F)c2)cc1Nc1nccc(-c2cncnc2)n1` only.
(A) 0.99

(Q) Answer with the recorded Growth Rate of `Cc1cccc(-c2nn3c(c2-c2ccnc4ccc(C(N)=O)cc24)CCC3)n1` only.
(A) 0.73

(Q) Answer with the recorded Growth Rate of `O=C(CCCN1CCC(O)(c2ccc(Cl)cc2)CC1)c1ccc(F)cc1` only.
(A) 0.65

(Q) Answer with the recorded Growth Rate of `CCn1cnc2c(-c3ccc(F)c(-c4ccc(S(=O)(=O)CC)cc4OC)c3)cnnc21` only.
(A) -0.28

(Q) Answer with the recorded Growth Rate of `CC(C)(C[C@H]1CN(S(=O)(=O)c2cccc(C(F)(F)F)c2)c2cc(-c3cc(F)cc(OC(F)F)c3)ccc2O1)C(=O)O` only.
(A) 0.9

(Q) Answer with the recorded Growth Rate of `CC(C)C[C@H](NC(=O)[C@@H](O)[C@H](N)Cc1ccccc1)C(=O)O` only.
(A) 0.98
